- ASSAY SYSTEM: human α2B‐adrenoceptor (Homo sapiens)
- Sequence (P18089 1-450): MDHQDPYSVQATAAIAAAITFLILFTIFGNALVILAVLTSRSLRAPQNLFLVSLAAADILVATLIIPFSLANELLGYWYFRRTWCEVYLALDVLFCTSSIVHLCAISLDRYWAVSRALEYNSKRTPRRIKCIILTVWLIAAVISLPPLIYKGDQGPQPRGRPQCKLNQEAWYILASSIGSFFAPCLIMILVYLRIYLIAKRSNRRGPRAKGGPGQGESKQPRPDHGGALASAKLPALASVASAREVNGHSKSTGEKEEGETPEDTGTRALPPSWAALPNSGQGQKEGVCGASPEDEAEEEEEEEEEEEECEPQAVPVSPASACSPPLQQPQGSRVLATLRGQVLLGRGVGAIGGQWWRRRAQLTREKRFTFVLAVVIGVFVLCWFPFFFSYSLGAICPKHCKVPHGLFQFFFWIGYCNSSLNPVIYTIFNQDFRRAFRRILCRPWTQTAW
- PROTOCOL: ^3H‐rauwolscine whole cell competition binding, CHO‐α2B cells
- ASSAY SETUP: ratio of KD values
REPORTED ENDPOINT: Selectivity ratio α2A vs α2B (higher affinity for α2B)
Please give only the number in your answer, with no unit.

CNCCCN1c2ccccc2CCc2ccc(Cl)cc21    2.8
OCCN1CCN(CCC=C2c3ccccc3Sc3ccc(C(F)(F)F)cc32)CC1    1.5
CN(C)CC/C=C1\c2ccccc2CSc2ccccc21 [dosulepin]    11.0
CC(C(O)c1ccc(O)cc1)N1CCC(Cc2ccccc2)CC1 (stereo not shown)    1.3
O=C1c2ccccc2CCC1CNCCc1ccc(O)cc1 (stereo not shown)    1.9

input: Under human α2B‐adrenoceptor (Homo sapiens): Selectivity ratio α2A vs α2B (higher affinity for α2B) value of O=C(NC1CCN(CCc2c[nH]c3ccccc23)CC1)c1ccccc1 ?
output: 2.1

input: Lookup: Selectivity ratio α2A vs α2B (higher affinity for α2B) / human α2B‐adrenoceptor (Homo sapiens) / COc1ccc(NC(=O)N2CCc3c2ccc2ccccc32)cc1N1CCN(C)CC1
output: 15.1

input: Item: CN(CCCN1c2ccccc2CCc2ccccc21)CC(=O)c1ccc(Cl)cc1 Test system: human α2B‐adrenoceptor (Homo sapiens) Read-out: Selectivity ratio α2A vs α2B (higher affinity for α2B) Value: ?
output: 5.5

input: For human α2B‐adrenoceptor (Homo sapiens), provide Selectivity ratio α2A vs α2B (higher affinity for α2B) of CN(C)CCCN1c2ccccc2CCc2ccccc21 please.
output: 12.9

input: Return Selectivity ratio α2A vs α2B (higher affinity for α2B) measured with human α2B‐adrenoceptor (Homo sapiens) given this compound: CCn1ccnc1CC1COc2ccccc2O1 (stereo not shown)
output: 4.0

----------
- ASSAY SYSTEM: human β1‐adrenoceptor (Homo sapiens, UniProt P08588)
- Sequence (P08588 whole entry): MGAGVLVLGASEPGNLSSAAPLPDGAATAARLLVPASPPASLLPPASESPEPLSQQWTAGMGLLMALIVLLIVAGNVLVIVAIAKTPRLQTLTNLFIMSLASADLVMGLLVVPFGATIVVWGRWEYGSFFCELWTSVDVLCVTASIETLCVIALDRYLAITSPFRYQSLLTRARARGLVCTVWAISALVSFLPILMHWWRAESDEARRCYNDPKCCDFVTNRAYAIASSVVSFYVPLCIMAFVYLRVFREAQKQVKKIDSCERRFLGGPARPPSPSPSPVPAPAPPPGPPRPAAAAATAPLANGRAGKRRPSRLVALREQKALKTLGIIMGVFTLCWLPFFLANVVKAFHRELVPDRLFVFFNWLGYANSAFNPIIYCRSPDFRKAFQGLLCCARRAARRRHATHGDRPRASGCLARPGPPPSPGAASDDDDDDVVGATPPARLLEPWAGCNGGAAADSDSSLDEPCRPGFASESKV
- ASSAY SETUP: printed as log IC50 bound (negative) in the Log KD β1 column; 3H-CGP12177
REPORTED ENDPOINT: IC50 (log) β1

COc1ccccc1N1CCN(CCN2C(=O)c3ccccc3C(C)(C)C2=O)CC1    IC50>-5
COc1ccccc1N1CCN(CC2CN3C(=O)N(C)c4ccccc4C3=N2)CC1 (stereo not shown)    IC50>-5
COc1cc2nc(N3CCN(C(=O)COc4c(OC)cccc4C(C)C)CC3)nc(N)c2cc1OC    IC50>-4
CN1CC[C@]2(CCN3CCc4c(oc5ccccc45)[C@@H]3C2)N(C)C1=O    IC50>-4
